# test.method.notes: Secondary Assay for Activators of Human Pyruvate Kinase M2 isoform - Cell Titer Glo Cytotoxicity for Probe SAR
# condition.set: HeLa viability, CellTiter-Glo ATP luminescence, 24 h; series mostly up to 58.2 µM
Results filed as inconclusive are left out. Calls of active or inactive are those of the source. Calls come from the whole dose curve; as a rule, active = well fitted curve in the direction sought with a large enough effect; inconclusive = small, poorly fitted or top-dose-only effect, or another doubt; inactive = no such curve, though single readings can be large or run the other way.
quantity.name: outcome

{"smi": "O=C1c2ccccc2C(=O)N1c1cccc2cccnc12", "outcome": "inactive"}
{"smi": "CCNc1cccc(S(=O)(=O)N2CCCN(S(=O)(=O)c3ccc4c(c3)OCCO4)CC2)c1", "outcome": "inactive"}
{"smi": "CCCCN1C(=O)c2ccccc2C1=O", "outcome": "inactive"}
{"smi": "O=C1CCc2cc(S(=O)(=O)Nc3ccccc3-c3ccccc3)ccc2N1", "outcome": "inactive"}
{"smi": "O=C1c2ccccc2C(=O)N1c1cccnc1", "outcome": "inactive"}
{"smi": "Cc1ccc(NS(=O)(=O)c2ccc3c(c2)N(C)C(=O)CO3)cc1C", "outcome": "inactive"}
{"smi": "Cc1ccc(Cl)cc1NS(=O)(=O)c1cc2c(cc1Cl)CCC(=O)N2", "outcome": "inactive"}
{"smi": "O=C1CCc2cc(S(=O)(=O)Nc3ccc(Cl)c(Cl)c3)ccc2N1", "outcome": "inactive"}
{"smi": "Fc1ccccc1-c1ccc(-c2nc3ccc(Cl)cn3c2Nc2ccc(Cl)cc2)o1", "outcome": "inactive"}
{"smi": "O=C1c2ccccc2C(=O)N1c1ccc2ccccc2n1", "outcome": "inactive"}

I have this compound here, O=C1CCc2cc(S(=O)(=O)Nc3ccc4ccccc4c3)ccc2N1 , and I need its recorded outcome.
inactive
